# system_name: full-length P. pyralis luciferase (Photinus pyralis, UniProt P08659, K549A/L550V/N119G/N50D/S548I)
# Sequence (P08659 whole entry N50D/N119G/S548I/K549A/L550V, looked up): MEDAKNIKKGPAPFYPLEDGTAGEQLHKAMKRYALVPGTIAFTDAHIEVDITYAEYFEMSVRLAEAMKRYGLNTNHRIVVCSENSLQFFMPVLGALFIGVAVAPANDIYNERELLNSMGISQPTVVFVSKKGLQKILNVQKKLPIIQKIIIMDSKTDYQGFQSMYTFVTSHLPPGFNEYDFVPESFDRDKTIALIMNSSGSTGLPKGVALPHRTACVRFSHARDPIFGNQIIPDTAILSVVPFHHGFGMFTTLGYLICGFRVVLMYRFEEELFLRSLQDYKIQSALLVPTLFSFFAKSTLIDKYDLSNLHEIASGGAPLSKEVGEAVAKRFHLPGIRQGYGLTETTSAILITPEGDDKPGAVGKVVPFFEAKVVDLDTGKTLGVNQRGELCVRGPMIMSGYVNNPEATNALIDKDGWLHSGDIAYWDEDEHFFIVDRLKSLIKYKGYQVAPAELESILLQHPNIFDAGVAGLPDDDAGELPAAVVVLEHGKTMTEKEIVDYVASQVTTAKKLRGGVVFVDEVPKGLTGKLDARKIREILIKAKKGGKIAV
# Type: cell-based
# cond: CC_NCI screening; full-length luciferase counter-screen luminescence; normalized to on-plate 0.3% DMSO controls
Below: a set of entries, each annotated with reported Luciferase Assay % Lum.

[
  {
    "compound": "Cl.Cn1c(CCCC(=O)O)nc2cc(N(CCCl)CCCl)ccc21 [Bendamustine hydrochloride]",
    "Luciferase Assay % Lum": "101.61%"
  },
  {
    "compound": "CN(C)C/C=C/C(=O)Nc1cc2c(Nc3ccc(F)c(Cl)c3)ncnc2cc1O[C@H]1CCOC1 [Afatinib]",
    "Luciferase Assay % Lum": "73.64%"
  },
  {
    "compound": "C[C@@H](N)[C@H]1CC[C@H](C(=O)Nc2ccncc2)CC1",
    "Luciferase Assay % Lum": "95.76%"
  },
  {
    "compound": "FC(F)c1nc2ccccc2n1-c1nc(N2CCOCC2)nc(N2CCOCC2)n1",
    "Luciferase Assay % Lum": "86.44%"
  }
]

* * *

# system_name: FGF14:Nav1.6 C-tail complex (Homo sapiens, UniProt Q92915+Q9UQD0)
# Construct: polymerase chain reaction (PCR) amplification of the FGF14 open reading frame (nt 1–855); C-terminal fragment of Nav1.6 (amino acids 1763–1976) fused with CD4ΔC-tail (amino acids 1–395); expressed in transfected cells
# Sequence (Q92915 1-252 isoform Q92915-2): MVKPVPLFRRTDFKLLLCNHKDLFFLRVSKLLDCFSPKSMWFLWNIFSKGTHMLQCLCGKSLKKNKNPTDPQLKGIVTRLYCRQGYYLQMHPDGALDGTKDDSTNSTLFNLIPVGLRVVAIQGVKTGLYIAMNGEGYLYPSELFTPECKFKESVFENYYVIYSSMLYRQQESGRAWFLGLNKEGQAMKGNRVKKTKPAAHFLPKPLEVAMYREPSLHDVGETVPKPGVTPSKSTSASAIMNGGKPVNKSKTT
# Sequence (Q9UQD0 1763-1976 limits assumed): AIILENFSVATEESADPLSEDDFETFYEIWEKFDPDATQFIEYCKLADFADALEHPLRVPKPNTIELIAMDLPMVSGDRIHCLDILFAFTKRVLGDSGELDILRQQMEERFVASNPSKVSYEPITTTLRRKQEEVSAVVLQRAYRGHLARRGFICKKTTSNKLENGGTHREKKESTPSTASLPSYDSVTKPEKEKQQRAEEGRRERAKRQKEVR
# measurement_protocol: Split-luciferase complementation assay (LCA) in Clone V double stable HEK293 cells
# Format: cell-based
# cond: CC_NCI screening; LCA, biological replicate Set 2; normalized to on-plate 0.3% DMSO controls
Below: a set of entries, each annotated with reported Split Luciferase Assay Z-score Set 2.
readout_kind: Split Luciferase Assay Z-score Set 2

[
  {
    "compound": "C[C@@H](N)[C@H]1CC[C@H](C(=O)Nc2ccncc2)CC1 [Compound Y-27632]",
    "system_name": "FGF14:Nav1.6 C-tail complex (Homo sapiens, UniProt Q92915+Q9UQD0)",
    "reported_measurement": -2.04
  },
  {
    "compound": "OCC1OC(O)CC(O)C1O (stereo not shown) [Compound 2DG]",
    "system_name": "FGF14:Nav1.6 C-tail complex (Homo sapiens, UniProt Q92915+Q9UQD0)",
    "reported_measurement": 2.44
  },
  {
    "compound": "COc1cc2c(N3CCN(C(=O)Nc4ccc(OC(C)C)cc4)CC3)ncnc2cc1OCCCN1CCCCC1 [TANDUTINIB]",
    "system_name": "FGF14:Nav1.6 C-tail complex (Homo sapiens, UniProt Q92915+Q9UQD0)",
    "reported_measurement": -0.60
  },
  {
    "compound": "Cn1nnc2c(C(N)=O)ncn2c1=O [Temozolomide]",
    "system_name": "FGF14:Nav1.6 C-tail complex (Homo sapiens, UniProt Q92915+Q9UQD0)",
    "reported_measurement": 0.75
  },
  {
    "compound": "CCOC(=O)C1=C(N)Oc2ccc(Br)cc2C1C(C#N)C(=O)OCC (stereo not shown) [HA14-1]",
    "system_name": "FGF14:Nav1.6 C-tail complex (Homo sapiens, UniProt Q92915+Q9UQD0)",
    "reported_measurement": -0.18
  },
  {
    "compound": "Cn1cc(C2=C(c3cn(C4CCN(Cc5ccccn5)CC4)c4ccccc34)C(=O)NC2=O)c2ccccc21 [ENZASTAURIN]",
    "system_name": "FGF14:Nav1.6 C-tail complex (Homo sapiens, UniProt Q92915+Q9UQD0)",
    "reported_measurement": -0.26
  },
  {
    "compound": "O=C(CCCCCCC(=O)Nc1ccccc1)NO [Vorinostat]",
    "system_name": "FGF14:Nav1.6 C-tail complex (Homo sapiens, UniProt Q92915+Q9UQD0)",
    "reported_measurement": -0.94
  },
  {
    "compound": "Nc1nc(Cl)nc2c1ncn2[C@@H]1O[C@H](CO)[C@@H](O)[C@@H]1F [Clofarabine]",
    "system_name": "FGF14:Nav1.6 C-tail complex (Homo sapiens, UniProt Q92915+Q9UQD0)",
    "reported_measurement": 2.53
  },
  {
    "compound": "C[C@]1(c2nc3c(C(N)=O)cccc3[nH]2)CCCN1 [ABT-888]",
    "system_name": "FGF14:Nav1.6 C-tail complex (Homo sapiens, UniProt Q92915+Q9UQD0)",
    "reported_measurement": -0.52
  },
  {
    "compound": "O=C1CCC(N2C(=O)c3ccccc3C2=O)C(=O)N1 (stereo not shown) [Thalidomide]",
    "system_name": "FGF14:Nav1.6 C-tail complex (Homo sapiens, UniProt Q92915+Q9UQD0)",
    "reported_measurement": 0.67
  }
]

* * *

Below: a set of entries, each annotated with reported Split Luciferase Assay Z-score Set 1.
# system_name: FGF14:Nav1.6 C-tail complex (Homo sapiens, UniProt Q92915+Q9UQD0)
# Construct: polymerase chain reaction (PCR) amplification of the FGF14 open reading frame (nt 1–855); C-terminal fragment of Nav1.6 (amino acids 1763–1976) fused with CD4ΔC-tail (amino acids 1–395); expressed in transfected cells
# measurement_protocol: Split-luciferase complementation assay (LCA) in Clone V double stable HEK293 cells
# Format: cell-based
# cond: CC_NCI screening; LCA, biological replicate Set 1; normalized to on-plate 0.3% DMSO controls

[
  {
    "compound": "CS(=O)(=O)c1ccc(C(=O)Nc2ccc(Cl)c(-c3ccccn3)c2)c(Cl)c1 [Vismodegib, reference compound]",
    "Split Luciferase Assay Z-score Set 1": 6.09
  },
  {
    "compound": "C[C@]12O[C@H](C[C@]1(O)CO)n1c3ccccc3c3c4c(c5c6ccccc6n2c5c31)CNC4=O [Lestaurtinib, reference compound]",
    "Split Luciferase Assay Z-score Set 1": -4.01
  },
  {
    "compound": "O=C(c1ccc(OCCN2CCCCC2)cc1)c1c(-c2ccc(O)cc2)sc2cc(O)ccc12 [Raloxifene]",
    "Split Luciferase Assay Z-score Set 1": -3.49
  },
  {
    "compound": "COc1cc2c(N3CCN(C(=O)Nc4ccc(OC(C)C)cc4)CC3)ncnc2cc1OCCCN1CCCCC1 [TANDUTINIB]",
    "Split Luciferase Assay Z-score Set 1": -0.59
  },
  {
    "compound": "Oc1ncnc2[nH]ncc12 [Allopurinol]",
    "Split Luciferase Assay Z-score Set 1": 0.55
  },
  {
    "compound": "CO[C@H]1C[C@@H]2CC[C@@H](C)[C@@](O)(O2)C(=O)C(=O)N2CCCC[C@H]2C(=O)O[C@H]([C@H](C)C[C@@H]2CC[C@@H](OCCO)[C@H](OC)C2)CC(=O)[C@H](C)/C=C(\\C)[C@@H](O)[C@@H](OC)C(=O)[C@H](C)C[C@H](C)/C=C/C=C/C=C/1C [Everolimus]",
    "Split Luciferase Assay Z-score Set 1": -1.91
  }
]
